assay: clinical; settings: human, in vivo, iv, Vdss
hey, just use true (1) if measured Vd is less than 1 L/kg, otherwise false (0)

Completed entries (count: 6):
CNC(=O)c1cccc2c(Nc3ccc(NS(C)(=O)=O)cc3OC)c3cccc(C)c3nc12	true (1)
CCN(C(C)=O)c1cccc(-c2ccnc3c(C#N)cnn23)c1	false (0)
CNS(=O)(=O)CCc1ccc2[nH]cc(C3CCN(C)CC3)c2c1	false (0)
O=C(NC1CCN(CCc2c[nH]c3ccccc23)CC1)c1ccccc1	false (0)
CCCCCN(CCCOC)C(=O)[C@@H](CCC(=O)O)NC(=O)c1ccc(Cl)c(Cl)c1 [DEXLOXIGLUMIDE]	true (1)
CCN(CC)CCNC(=O)c1ccc(NC(C)=O)cc1 [ACECAINIDE]	false (0)

A record lists CCN(CC)CCCC(C)Nc1ccnc2cc(Cl)ccc12 (configuration not stated) . Is its Vd below 1 L/kg?
false (0)

Same lookup for NC(N)=Nc1nc(CSCCC(N)=NS(N)(=O)=O)cs1 , please.
false (0)

Same lookup for CC[C@H](OC(C)=O)C(C[C@H](C)N(C)C)(c1ccccc1)c1ccccc1 [LEVOMETHADYL ACETATE] , please.
false (0)

Same lookup for CN1CCN(C(=O)OC2c3nccnc3C(=O)N2c2ccc(Cl)cn2)CC1 (configuration not stated) , please.
false (0)

Same lookup for CCCNC(C)C(=O)Nc1ccccc1C (configuration not stated) , please.
false (0)

---

assay: clinical; conditions: human, in vivo, iv
Tag: true if measured fraction unbound is not below 0.5, false if it is.

Completed entries (count: 8):
CC(=O)OCC1=C(C(=O)O)N2C(=O)[C@@H](NC(=O)Cc3cccs3)[C@H]2SC1	false
CC[C@H](C)C[C@H](C)CCCCCCCCC(=O)N[C@H]1C[C@@H](O)[C@@H](NCCN)NC(=O)[C@@H]2[C@@H](O)CCN2C(=O)[C@H]([C@H](O)CCN)NC(=O)[C@H]([C@H](O)[C@@H](O)c2ccc(O)cc2)NC(=O)[C@@H]2C[C@@H](O)CN2C(=O)[C@H]([C@@H](C)O)NC1=O	false
CN1C(=O)NC(=O)C(C)(C2=CCCCC2)C1=O (stereo unspecified) [HEXOBARBITAL]	true
C=C1CC[C@@]2(O)[C@H]3Cc4ccc(O)c5c4[C@@]2(CCN3CC2CC2)[C@H]1O5	true
COc1ccc(C[C@@H]2c3cc(OC)c(OC)cc3CC[N@+]2(C)CCC(=O)OCCCCCOC(=O)CC[N@@+]2(C)CCc3cc(OC)c(OC)cc3[C@H]2Cc2ccc(OC)c(OC)c2)cc1OC	true
CCC[C@H](N[C@@H](C)C(=O)N1[C@H](C(=O)O)C[C@@H]2CCCC[C@@H]21)C(=O)O	false
O=C(Cc1cccs1)N[C@@H]1C(=O)N2C(C(=O)[O-])=C(C[n+]3ccccc3)CS[C@H]12	true
C#C[C@]1(O)CC[C@H]2[C@@H]3CCc4cc(OS(=O)(=O)O)ccc4[C@H]3CC[C@@]21C	false

Please check the record COC(=O)C1=C(C)NC(C)=C(C(=O)OC(C)C)C1c1cccc2nonc12 (stereo unspecified) and state if its fraction unbound is at or above 0.5.
false

Same lookup for COc1ccc2c3c1O[C@H]1C(=O)CC[C@@]4(O)[C@@H](C2)N(C)CC[C@]314 , please.
true

Same lookup for CC(=O)O[C@H]1C[C@]2(C)CC[C@H]3[C@@H]4C[C@H](N5CC[N+](C)(C)CC5)[C@H](OC(C)=O)[C@@]4(C)CC[C@@H]3[C@@]2(C)C[C@@H]1N1CC[N+](C)(C)CC1.[Br-].[Br-] , please.
true

Same lookup for CN(C)c1cc(NC(=O)CNC(C)(C)C)c(O)c2c1C[C@H]1C[C@H]3[C@H](N(C)C)C(O)=C(C(N)=O)C(=O)[C@@]3(O)C(O)=C1C2=O , please.
false

Same lookup for CCC(=O)O[C@](Cc1ccccc1)(c1ccccc1)[C@H](C)CN(C)C , please.
false

Same lookup for CCC1=C[C@@H]2CN(C1)Cc1c([nH]c3ccccc13)[C@@](C(=O)OC)(c1cc3c(cc1OC)N(C)[C@H]1[C@@](O)(C(=O)OC)[C@H](OC(C)=O)[C@]4(CC)C=CCN5CC[C@]31[C@@H]54)C2 (stereo in doubt; form 2) , please.
true

---

test: clinical; conditions: human, in vivo, iv, t1/2
Reported log10 half-life values are given for each entry in this list.
Annotation: log10 of half-life, min basis.

COc1cc(CC(=O)NCC(=O)N(CCC(=O)O)Cc2ccc(OC)c(OC)c2)ccc1NC(=O)Nc1ccccc1C	1.98
C[C@H]1COc2c(N3CCN(C)CC3)c(F)cc3c(=O)c(C(=O)O)cn1c23.C[C@H]1COc2c(N3CCN(C)CC3)c(F)cc3c(=O)c(C(=O)O)cn1c23.O	2.72
Cc1ccsc1C(=CCCN1CCC[C@@H](C(=O)O)C1)c1sccc1C	2.78
COc1cc([C@@H]2c3cc4c(cc3C(OC3OC5COC(C)OC5C(O)C3N)C3COC(=O)[C@@H]32)OCO4)cc(OC)c1O (some centres not stated)	2.92
COC(=O)C1=C(C)NC(C)=C(C(=O)OCC(C)C)C1c1ccccc1[N+](=O)[O-] (configuration not stated)	2.82
OCCN1CCN(CCCN2c3ccccc3Sc3ccc(Cl)cc32)CC1	2.75

Continue with the next compound.
I have this compound here, O=C(O[C@@H]1C[C@@H]2C[C@H]3C[C@H](C1)N2CC3=O)c1c[nH]c2ccccc12 , and I need its recorded log10 half-life.
0.89

---

Reported log10 of Vd values are given for each entry in this list.
experiment: clinical; conditions: human, in vivo, iv, Vdss
Annotation: log10 of Vd, L/kg basis.

I have this compound here, O=C(O)CCCc1ccc(N(CCCl)CCCl)cc1 , and I need its recorded log10 of Vd.
-0.59

Same lookup for COc1cccc2c1C(=O)c1c(O)c3c(c(O)c1C2=O)C[C@@](O)(C(=O)CO)C[C@@H]3O[C@H]1C[C@H](N)[C@@H](O)[C@H](C)O1 [EPIRUBICIN] , please.
1.65

Same lookup for CCOc1ccc(NC(C)=O)cc1 , please.
0.15

Same lookup for CO[C@H]1C[C@@H]2CC[C@@H](C)[C@@](O)(O2)C(=O)C(=O)N2CCCC[C@H]2C(=O)O[C@H]([C@H](C)C[C@@H]2CC[C@@H](OC(=O)C(C)(CO)CO)[C@H](OC)C2)CC(=O)[C@H](C)/C=C(\C)[C@@H](O)[C@@H](OC)C(=O)[C@H](C)C[C@H](C)/C=C/C=C/C=C/1C , please.
0.48

---

Reported half-life values are given for each entry in this list.
experiment: clinical; conditions: human, in vivo, iv, t1/2
Give the value in h but do not write h after it.

CN1CCC[C@H]1c1cccnc1 [NICOTINE]	2
Cc1ccc(C(=O)Nc2ccc(S(=O)(=O)O)c3cc(S(=O)(=O)O)cc(S(=O)(=O)O)c23)cc1NC(=O)c1cccc(NC(=O)Nc2cccc(C(=O)Nc3cc(C(=O)Nc4ccc(S(=O)(=O)O)c5cc(S(=O)(=O)O)cc(S(=O)(=O)O)c45)ccc3C)c2)c1 [SURAMIN]	1200
O=C1OC2(c3ccc(O)cc3Oc3cc(O)ccc32)c2ccccc21 [FLUORESCEIN]	1.6
OC(Cn1cncn1)(Cn1cncn1)c1ccc(F)cc1F [FLUCONAZOLE]	30
O=C(NCCN1CCOCC1)c1ccc(Cl)cc1 [MOCLOBEMIDE]	1.5

I have this compound here, CNC(=O)c1c(I)c(NC(C)=O)c(I)c(C(=O)O)c1I [IOTHALAMIC ACID] , and I need its recorded half-life.
1.3

Same lookup for COc1cc2c(N)nc(N3CCN(C(=O)OCC(C)(C)O)CC3)nc2c(OC)c1OC [TRIMAZOSIN] , please.
3.1

Same lookup for NC[C@H]1O[C@H](O[C@H]2[C@H](O)[C@@H](O[C@H]3O[C@H](CO)[C@@H](O)[C@H](N)[C@H]3O)[C@H](N)C[C@@H]2N)[C@H](N)C[C@@H]1O [TOBRAMYCIN] , please.
2

Same lookup for C#C[C@]1(OS(=O)(=O)O)CC[C@H]2[C@@H]3CCc4cc(O)ccc4[C@H]3CC[C@@]21C , please.
9.3

Same lookup for C#C[C@]1(O)CC[C@H]2[C@@H]3CCc4cc(OS(=O)(=O)O)ccc4[C@H]3CC[C@@]21C , please.
8.4

Same lookup for CC(CCc1ccccc1)NCC(O)c1ccc(O)c(C(N)=O)c1 (stereo not drawn) [LABETALOL] , please.
4.4

Same lookup for CCn1cc(C(=O)O)c(=O)c2cc(F)c(N3CCNCC3)nc21 [ENOXACIN] , please.
5.1

Same lookup for Cc1c(OCC(F)(F)F)ccnc1C[S+]([O-])c1nc2ccccc2[nH]1 (stereo not drawn) [LANSOPRAZOLE] , please.
1

Same lookup for Cn1cc(NC(=O)Nc2cc(C(=O)Nc3cc(C(=O)Nc4ccc5cc(S(=O)(=O)O)cc(S(=O)(=O)O)c5c4)n(C)c3)n(C)c2)cc1C(=O)Nc1cc(C(=O)Nc2ccc3cc(S(=O)(=O)O)cc(S(=O)(=O)O)c3c2)n(C)c1 , please.
730

Same lookup for Cc1ccc(O)c([C@H](CCN(C(C)C)C(C)C)c2ccccc2)c1 [TOLTERODINE] , please.
2.4

Same lookup for CCCCCNC(=O)c1coc([C@H]2[C@@H](Cc3ccccc3CCC(=O)O)[C@@H]3CC[C@H]2O3)n1 [IFETROBAN] , please.
22

Same lookup for CS(=O)(=O)OCCCCOS(C)(=O)=O [BUSULFAN] , please.
3.4

Same lookup for N=C(N)c1ccc(CNC(=O)[C@@H]2CCN2C(=O)[C@H](NCC(=O)O)C2CCCCC2)cc1 , please.
1.6

Same lookup for Cc1cccc(C)c1NC(=O)NCCCNC(C)C , please.
5

Same lookup for COc1ccc2cc1Oc1cc3c(cc1OC)CC[N+](C)(C)[C@H]3Cc1ccc(cc1)Oc1c(OC)c(OC)cc3c1[C@@H](C2)[N+](C)(C)CC3.[I-].[I-] [METOCURINE IODIDE] , please.
5.1

Same lookup for COc1c(N2CCNC(C)C2)c(F)cc2c(=O)c(C(=O)O)cn(C3CC3)c12 (stereo not drawn) [GATIFLOXACIN] , please.
10

Same lookup for CCCCCN(C)CCC(O)(P(=O)(O)O)P(=O)(O)O [IBANDRONIC ACID] , please.
14

Same lookup for CN(C)c1cc(NC(=O)CNC(C)(C)C)c(O)c2c1C[C@H]1C[C@H]3[C@H](N(C)C)C(O)=C(C(N)=O)C(=O)[C@@]3(O)C(O)=C1C2=O [TIGECYCLINE] , please.
48

Same lookup for O=C(O)c1cc(-c2ccc(F)cc2F)ccc1O [DIFLUNISAL] , please.
10

Same lookup for CCC(=O)C1(c2cccc(O)c2)CCN(C)CC1 [KETOBEMIDONE] , please.
2.3

Same lookup for CC(C)(C)NCC(O)COc1ccc(NC(=O)NC2CCCCC2)cc1 (stereo not drawn) [TALINOLOL] , please.
11

Same lookup for CCC1(c2ccccc2)C(=O)NC(=O)NC1=O [PHENOBARBITAL] , please.
99

Same lookup for O=C(CCCN1CCC(n2c(O)nc3ccccc32)CC1)c1ccc(F)cc1 [BENPERIDOL] , please.
5.8

Same lookup for Cc1nc2c([nH]1)-c1ccccc1N(C(=O)c1ccc(NC(=O)c3ccccc3-c3ccccc3)cc1)CC2 [CONIVAPTAN] , please.
6.7

Same lookup for CNC(=O)c1cccc2c(Nc3ccc(NS(C)(=O)=O)cc3OC)c3cccc(C)c3nc12 [ASULACRINE] , please.
2.4

Same lookup for Cc1cccc(C)c1NC(=O)C1CCCCN1C (stereo not drawn) [MEPIVACAINE] , please.
2

Same lookup for CC(C)(C)[C@H](NC(=O)[C@H](CC1CCCC1)CN(O)C=O)C(=O)N1CCN(Cc2ccc3c(c2)OCO3)CC1 , please.
9.4

Same lookup for O=C(c1ccc(F)cc1)C1CCN(CCn2c(=O)[nH]c3ccccc3c2=O)CC1 [KETANSERIN] , please.
12
